Target: C3a Receptor (Homo sapiens)
Sequence (Q16581 1-482 F151C): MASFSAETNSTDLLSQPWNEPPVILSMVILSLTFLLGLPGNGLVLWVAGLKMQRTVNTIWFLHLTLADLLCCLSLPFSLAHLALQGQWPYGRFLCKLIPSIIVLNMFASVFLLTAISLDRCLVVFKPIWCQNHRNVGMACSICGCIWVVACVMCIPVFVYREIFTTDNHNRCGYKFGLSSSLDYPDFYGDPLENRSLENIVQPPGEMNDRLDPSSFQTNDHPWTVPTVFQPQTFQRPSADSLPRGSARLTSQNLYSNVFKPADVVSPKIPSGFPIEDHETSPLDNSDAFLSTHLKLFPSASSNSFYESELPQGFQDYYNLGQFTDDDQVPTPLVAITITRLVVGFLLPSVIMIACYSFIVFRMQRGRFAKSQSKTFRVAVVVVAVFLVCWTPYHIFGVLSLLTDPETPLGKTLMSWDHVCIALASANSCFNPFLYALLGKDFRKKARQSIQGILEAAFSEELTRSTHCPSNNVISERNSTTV
Assay: Calcium mobilization by Fura 2 loaded RBL-2H3 cells stably expressing C3a Receptor
Assay type: cell-based
Set-up: cDNA encoding a complete orphan GPCR of 482 amino acids; expressed in transfected cells
Settings: Fura 2 loaded RBL-2H3 cells expressing C3a Receptor; read-out: EC50, mobilization of intracellular Ca2+
MEASURED_ATTRIBUTE: EC50 (nM)
Unit nM implied. Number only.

Tell me the measured EC50 of WWGKKYRASKLGLAR [C3a analogue synthetic peptide, reference compound] , please.
3.9
